Origin of measurements: patent US10717716B2

Molecular target: human recombinant HDAC6 (Homo sapiens, UniProt Q9UBN7)
Construct: purchased Calbiochem 382180
Sequence (Q9UBN7 1-1215): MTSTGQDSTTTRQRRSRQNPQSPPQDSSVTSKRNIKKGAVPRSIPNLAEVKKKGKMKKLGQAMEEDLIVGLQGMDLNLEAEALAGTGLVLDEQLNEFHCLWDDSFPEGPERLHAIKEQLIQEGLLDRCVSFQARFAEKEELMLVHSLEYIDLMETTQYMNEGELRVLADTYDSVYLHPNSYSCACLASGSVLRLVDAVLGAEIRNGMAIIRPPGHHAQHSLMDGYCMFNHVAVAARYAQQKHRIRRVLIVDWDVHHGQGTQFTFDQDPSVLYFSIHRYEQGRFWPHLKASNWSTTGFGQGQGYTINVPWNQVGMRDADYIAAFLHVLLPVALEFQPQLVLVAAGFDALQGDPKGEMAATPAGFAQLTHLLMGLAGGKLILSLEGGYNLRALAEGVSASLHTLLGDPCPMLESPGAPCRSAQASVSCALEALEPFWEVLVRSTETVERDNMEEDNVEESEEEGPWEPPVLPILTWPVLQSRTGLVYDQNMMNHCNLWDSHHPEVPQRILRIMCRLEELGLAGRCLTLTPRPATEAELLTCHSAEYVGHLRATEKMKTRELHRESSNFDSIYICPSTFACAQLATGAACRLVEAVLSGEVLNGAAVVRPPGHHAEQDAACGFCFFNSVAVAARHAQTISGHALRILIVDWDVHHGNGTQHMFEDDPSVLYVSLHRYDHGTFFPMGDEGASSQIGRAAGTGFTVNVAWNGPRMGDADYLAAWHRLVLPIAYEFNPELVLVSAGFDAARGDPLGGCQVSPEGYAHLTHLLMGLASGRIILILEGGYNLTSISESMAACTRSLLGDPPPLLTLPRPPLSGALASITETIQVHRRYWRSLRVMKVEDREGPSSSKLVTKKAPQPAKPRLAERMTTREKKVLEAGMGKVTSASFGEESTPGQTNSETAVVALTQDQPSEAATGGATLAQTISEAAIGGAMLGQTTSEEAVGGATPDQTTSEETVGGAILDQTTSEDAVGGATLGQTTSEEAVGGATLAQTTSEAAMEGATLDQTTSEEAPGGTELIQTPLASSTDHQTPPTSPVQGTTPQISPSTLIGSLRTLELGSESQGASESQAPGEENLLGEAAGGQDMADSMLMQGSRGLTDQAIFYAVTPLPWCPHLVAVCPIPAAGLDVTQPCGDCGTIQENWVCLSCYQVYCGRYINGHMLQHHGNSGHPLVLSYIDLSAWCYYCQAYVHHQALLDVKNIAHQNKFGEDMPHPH
Assay: HDAC6 enzyme activity inhibition assay (HDAC Fluorimetric Drug Discovery Kit)
Type: biochemical
Details: human recombinant HDAC6, same protocol as HDAC1; read-out: HDAC6
Protocol: In order to examine the HDAC6 selectivity of the compounds of formula I of the present invention by HDAC1 and HDAC6 enzymatic activity inhibition assays, an experiment was performed using a conventional substance as a control. HDAC enzyme activity was measured using a HDAC Fluorimetric Drug Discovery Kit (BML-AK511, 516, Enzo Life Science). […] Based on the resulting values, each IC5, value was calculated using GraphPad Prism4.0 program.
quantity-kind: IC50 (nM)
Report the value in nM with no unit label.

Consider the worked cases shown below.
Task: Record lookup: for human recombinant HDAC6 (Homo sapiens, UniProt Q9UBN7), what IC50 belongs to Cc1cccc(N(Cc2ccc(-c3nnc(C(F)F)o3)cc2)C(=O)N2CCS(=O)(=O)CC2)c1 ?
Result: 51

Task: Record lookup: for human recombinant HDAC6 (Homo sapiens, UniProt Q9UBN7), what IC50 belongs to O=C(N1CCOCC1)N(Cc1ccc(-c2nnc(C(F)(F)F)o2)cc1)c1ccc(F)cc1F ?
Result: 126

Task: Record lookup: for human recombinant HDAC6 (Homo sapiens, UniProt Q9UBN7), what IC50 belongs to COCCN1CCN(CCNC(=O)N(Cc2ccc(-c3nnc(C(F)F)o3)cc2F)c2ccccc2)CC1 ?
Result: 91

---
Task: Record lookup: for human recombinant HDAC6 (Homo sapiens, UniProt Q9UBN7), what IC50 belongs to O=C(NCCN1CCN(c2noc3ccccc23)CC1)N(Cc1ccc(-c2nnc(C(F)F)o2)cc1F)c1ccccc1 ?
Result: 320

Task: Record lookup: for human recombinant HDAC6 (Homo sapiens, UniProt Q9UBN7), what IC50 belongs to O=C(N1CCS(=O)(=O)CC1)N(Cc1ccc(-c2nnc(C(F)(F)F)o2)cc1)c1ccc(-c2ccoc2)cc1 ?
Result: 157

Task: Record lookup: for human recombinant HDAC6 (Homo sapiens, UniProt Q9UBN7), what IC50 belongs to O=C(N1CCOCC1)N(Cc1ccc(-c2nnc(C(F)F)o2)cn1)c1ccccc1 ?
Result: 18

Task: Record lookup: for human recombinant HDAC6 (Homo sapiens, UniProt Q9UBN7), what IC50 belongs to O=C(N1CCNCC1)N(Cc1ccc(-c2nnc(C(F)(F)F)o2)cc1)c1ccccc1 ?
Result: 55.7

Task: Record lookup: for human recombinant HDAC6 (Homo sapiens, UniProt Q9UBN7), what IC50 belongs to COCCN1CCN(C(=O)N(Cc2ccc(-c3nnc(C(F)(F)F)o3)cc2)c2ccccc2)CC1 ?
Result: 185

Task: Record lookup: for human recombinant HDAC6 (Homo sapiens, UniProt Q9UBN7), what IC50 belongs to O=C(N1CCN(c2ccccc2)CC1)N(Cc1ccc(-c2nnc(C(F)(F)F)o2)cc1)c1ccccc1 ?
Result: 1050

Task: Record lookup: for human recombinant HDAC6 (Homo sapiens, UniProt Q9UBN7), what IC50 belongs to CCN1CCN(C(=O)N(Cc2ccc(-c3nnc(C(F)(F)F)o3)cn2)c2ccc(Cl)cc2)CC1 ?
Result: 152

Task: Record lookup: for human recombinant HDAC6 (Homo sapiens, UniProt Q9UBN7), what IC50 belongs to CC(=O)N1CC2(CCN(C(=O)N(Cc3ccc(-c4nnc(C(F)(F)F)o4)cc3)c3ccccc3)CC2)C1 ?
Result: 154

Task: Record lookup: for human recombinant HDAC6 (Homo sapiens, UniProt Q9UBN7), what IC50 belongs to O=C(N1CCN(C2COC2)CC1)N(Cc1ccc(-c2nnc(C(F)F)o2)cc1F)c1ccccc1 ?
Result: 89

Task: Record lookup: for human recombinant HDAC6 (Homo sapiens, UniProt Q9UBN7), what IC50 belongs to O=C(N1CCS(=O)(=O)CC1)N(Cc1ccc(-c2nnc(C(F)F)o2)cc1F)c1cccc(OC(F)(F)F)c1 ?
Result: 36

Task: Record lookup: for human recombinant HDAC6 (Homo sapiens, UniProt Q9UBN7), what IC50 belongs to COc1ccc(N(Cc2ccc(-c3nnc(C(F)F)o3)cn2)C(=O)N2CCN(C3COC3)CC2)cc1 ?
Result: 160

Task: Record lookup: for human recombinant HDAC6 (Homo sapiens, UniProt Q9UBN7), what IC50 belongs to COc1ccccc1CCN(Cc1ccc(-c2nnc(C(F)F)o2)cc1F)C(=O)N1CCN(C)CC1 ?
Result: 281

Task: Record lookup: for human recombinant HDAC6 (Homo sapiens, UniProt Q9UBN7), what IC50 belongs to O=C(N1CCS(=O)(=O)CC1)N(Cc1ccc(-c2nnc(C(F)(F)F)o2)cc1)c1cccc(F)c1 ?
Result: 153

Task: Record lookup: for human recombinant HDAC6 (Homo sapiens, UniProt Q9UBN7), what IC50 belongs to CS(=O)(=O)c1ccc(N(Cc2ccc(-c3nnc(C(F)F)o3)cc2)C(=O)N2CCOCC2)cc1 ?
Result: 175

Task: Record lookup: for human recombinant HDAC6 (Homo sapiens, UniProt Q9UBN7), what IC50 belongs to CCN1CCN(C(=O)N(Cc2ccc(-c3nnc(C(F)F)o3)cc2F)c2ccc(C)c(Cl)c2)CC1 ?
Result: 44

Task: Record lookup: for human recombinant HDAC6 (Homo sapiens, UniProt Q9UBN7), what IC50 belongs to O=C(N1CCS(=O)(=O)CC1)N(Cc1ccc(-c2nnc(C(F)(F)F)o2)cc1)c1ccccn1 ?
Result: 304
